Value source: patent EP1586565A1

target: Human factor Xa (Homo sapiens, UniProt P00742); construct: leads from XII to XIIa to XIa to IXa and to the conversion of X to Xa; purchased Enzyme Research Laboratories, South Bend IN; test: Xa Assay; type: biochemical; conditions: % inhibition at 30 µM (cells with % or %@30, bare 0)
Sequence (P00742 235-488 limits assumed): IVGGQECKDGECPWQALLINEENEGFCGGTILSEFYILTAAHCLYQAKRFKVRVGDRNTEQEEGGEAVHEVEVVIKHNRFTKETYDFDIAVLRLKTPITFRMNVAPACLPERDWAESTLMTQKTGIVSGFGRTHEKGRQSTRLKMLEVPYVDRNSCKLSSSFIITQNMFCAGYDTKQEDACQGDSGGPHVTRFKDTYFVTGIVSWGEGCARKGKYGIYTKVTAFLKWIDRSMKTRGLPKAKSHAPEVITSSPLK
Sequence (P00742 41-179 limits assumed): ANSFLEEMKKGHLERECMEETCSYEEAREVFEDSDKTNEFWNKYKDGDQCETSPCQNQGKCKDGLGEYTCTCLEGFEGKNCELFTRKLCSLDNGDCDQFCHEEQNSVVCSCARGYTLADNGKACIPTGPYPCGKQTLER
measurement_kind: IC50 or % Inhibition Factor Xa (30 µM) (%)
Answers are plain numbers, in %.

Completed entries (count: 3):
CCCCCNc1nc(Cl)c(-c2ccccc2)n(CC(=O)NCc2ccc(C(=N)N)cc2)c1=O [1517-48]
0
CCCC(CCC)Nc1nc(Cl)c(-c2ccccc2)n(CC(=O)NCc2ccc(C(=N)N)cc2)c1=O [1517-26]
0
N=C(N)c1ccc(CNC(=O)Cn2c(-c3ccc4c(c3)OCO4)c(Cl)nc(NCCc3ccncc3)c2=O)cc1 [1471-45]
24

Provide IC50 or % Inhibition Factor Xa (30 µM) values for the following items, in order.
1. COc1ccc(-c2c(Cl)nc(NCCc3ccncc3)c(=O)n2CC(=O)NCc2ccc(C(=N)N)cc2)cc1 [1471-37]
2. N=C(N)c1ccc(CNC(=O)Cn2c(-c3ccccc3)c(Cl)nc(NC3CCS(=O)(=O)C3)c2=O)cc1 (stereo not drawn) [1507-36]
3. N=C(N)NC/C=C\CNC(=O)Cn1c(-c2ccccc2)cnc(NCCc2ccccc2)c1=O [Example 37]

Ans:
1: 7; 2: 0; 3: 0

----------
biological target: TF-VIIa (Homo sapiens, UniProt P08709); construct: An extrinsic pathway is initiated by the conversion of coagulation factor VII to VIIa by Xa; purchased American Diagnostica, Greenwich CT; Soluble TF was made in house in E. coli; assay: TF-VIIa Assay; assay type: biochemical; conditions: % inhibition at 30 µM (cells with % or %@30, bare 0)
Sequence (P08709 213-466 limits assumed): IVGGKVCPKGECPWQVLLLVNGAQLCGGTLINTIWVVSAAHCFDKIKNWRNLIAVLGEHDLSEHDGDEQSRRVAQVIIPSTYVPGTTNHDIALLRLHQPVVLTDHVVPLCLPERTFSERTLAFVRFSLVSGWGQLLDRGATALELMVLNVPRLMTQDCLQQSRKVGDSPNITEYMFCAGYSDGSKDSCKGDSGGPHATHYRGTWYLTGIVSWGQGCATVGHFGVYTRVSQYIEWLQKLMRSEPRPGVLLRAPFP
Sequence (P08709 61-212 limits assumed): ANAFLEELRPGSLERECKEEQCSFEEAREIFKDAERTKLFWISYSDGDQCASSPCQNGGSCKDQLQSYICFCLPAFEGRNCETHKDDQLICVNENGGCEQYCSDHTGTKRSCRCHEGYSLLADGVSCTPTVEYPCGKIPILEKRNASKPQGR
Sequence (P13726 33-251 partner limits assumed): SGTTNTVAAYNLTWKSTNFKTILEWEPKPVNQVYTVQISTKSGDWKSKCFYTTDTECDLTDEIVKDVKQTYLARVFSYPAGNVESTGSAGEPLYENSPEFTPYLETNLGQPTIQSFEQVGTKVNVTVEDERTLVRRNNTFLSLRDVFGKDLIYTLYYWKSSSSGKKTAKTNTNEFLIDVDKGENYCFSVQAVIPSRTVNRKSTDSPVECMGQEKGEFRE
measurement_kind: IC50 or % Inhibition TF-VIIa (30 µM) (%)
Numbers only, in %.

N=C(N)c1ccc(CNC(=O)Cn2c(-c3ccc(Cl)cc3)c(Cl)nc(NCCN3CCOCC3)c2=O)cc1 [1471-20]
42
N=C(N)c1ccc(CNC(=O)Cn2c(-c3ccc(-c4ccccc4)cc3)c(Cl)nc(NCc3ccncc3)c2=O)cc1 [1471-67]
12
N=C(N)c1ccc(CNC(=O)Cn2c(-c3ccccc3)c(Cl)nc(NCc3ccccn3)c2=O)cc1 [1507-24]
0

Provide IC50 or % Inhibition TF-VIIa (30 µM) values for the following items, in order.
1. CC(C)Nc1nc(Cl)c(-c2cccc([N+](=O)[O-])c2)n(CC(=O)NCc2ccc(C(N)=NO)cc2)c1=O [Example 61]
2. N=C(N)c1ccc(CNC(=O)Cn2c(-c3ccccc3)c(Cl)nc(NCC3CC3)c2=O)cc1 [1517-43]
3. N=C(N)c1ccc(CNC(=O)Cn2c(-c3ccccc3)c(Cl)nc(NCc3cc(F)cc(C(F)(F)F)c3)c2=O)cc1 [1512-29]
4. COc1ccc(-c2c(Cl)nc(NCc3ccccc3)c(=O)n2CC(=O)NCc2ccc(C(=N)N)cc2)cc1 [1471-33]
5. N=C(N)c1ccc(CNC(=O)Cn2c(-c3ccccc3)c(Cl)nc(NC(Cc3ccccc3)c3ccccc3)c2=O)cc1 (stereo not drawn) [1507-07]

Ans:
1
25
47
31
25

----------
Record form. Attribute: IC50 or % Inhibition Factor Xa (30 µM). Fill in for each entry.
molecular target: Human factor Xa (Homo sapiens); construct: leads from XII to XIIa to XIa to IXa and to the conversion of X to Xa; purchased Enzyme Research Laboratories, South Bend IN; experiment: Xa Assay; type: biochemical; settings: % inhibition at 30 µM (cells with % or %@30, bare 0)
One number for each entry, in %.

N=C(N)c1ccc(CNC(=O)Cn2c(-c3c(Cl)cccc3Cl)c(Cl)nc(NC3CCC3)c2=O)cc1 [1517-12]
0
N=C(N)c1ccc(CNC(=O)Cn2c(-c3ccccc3)c(Cl)nc(NCc3ccccc3OC(F)(F)F)c2=O)cc1 [1512-42]
1

Provide IC50 or % Inhibition Factor Xa (30 µM) values for the following items, in order.
1. CSc1ccc(N)cc1-c1c(Cl)nc(NC(C)C)c(=O)n1CC(=O)NCc1ccc(C(=N)N)cc1 [compound 76]
2. N=C(N)c1ccc(CNC(=O)C(Cc2ccccc2)n2c(-c3ccccc3)c(Cl)nc(NCCc3cccc(Cl)c3)c2=O)cc1 (stereo not shown) [1517-20]
3. Cc1c(Cl)nc(NCCN2CCOCC2)c(=O)n1CC(=O)NCc1ccc(C(=N)N)cc1 [1471-4]
4. N=C(N)c1ccc(CNC(=O)Cn2c(-c3cccc(Cl)c3)c(Cl)nc(NCc3ccccc3)c2=O)cc1 [1471-25]
5. N=C(N)c1ccc(CNC(=O)Cn2c(-c3ccccc3)c(Cl)nc(NCC3CC3)c2=O)cc1 [1517-43]
6. N=C(N)c1ccc(CNC(=O)Cn2c(-c3ccccc3)c(Cl)nc(NCc3cccc(OC(F)(F)F)c3)c2=O)cc1 [1512-40]
7. Cc1c(Cl)nc(NCCc2ccccc2)c(=O)n1CC(=O)NCc1ccc(C(=N)N)cc1 [1471-7]
8. N=C(N)c1ccc(CNC(=O)Cn2c(-c3ccccc3)c(Cl)nc(NCc3ccc(Cl)cc3)c2=O)cc1 [1507-46]

Ans:
[0, 0, 0, 31, 0, 3, 4, 8]

Provide IC50 or % Inhibition Factor Xa (30 µM) values for the following items, in order.
1. N=C(N)c1ccc(CNC(=O)Cn2c(-c3ccccc3)c(Cl)nc(NCCc3ccc(Cl)cc3)c2=O)cc1 [1471-10]
2. N=C(N)c1ccc(CNC(=O)Cn2c(-c3ccc(-c4ccccc4)cc3)c(Cl)nc(NCc3ccncc3)c2=O)cc1 [1471-67]
3. N=C(N)c1ccc(CNC(=O)Cn2c(-c3cccc(Cl)c3)c(Cl)nc(NCCc3cccnc3)c2=O)cc1 [1471-32]

Ans:
[45, 16, 25]

Provide IC50 or % Inhibition Factor Xa (30 µM) values for the following items, in order.
1. N=C(N)c1ccc(CNC(=O)Cn2c(-c3ccsc3)c(Cl)nc(NCc3ccccc3)c2=O)cc1 [1517-01]
2. Nc1n[nH]c2ccc(CNC(=O)Cn3c(-c4ccccc4)cnc(NCCc4ccccc4)c3=O)cc12 [Example 38]

Ans:
0
22

Provide IC50 or % Inhibition Factor Xa (30 µM) values for the following items, in order.
1. N=C(N)c1ccc(CNC(=O)Cn2c(-c3ccccc3)c(Cl)nc(NCc3cc(C(F)(F)F)cc(C(F)(F)F)c3)c2=O)cc1 [1507-40]
2. CCc1c(Cl)nc(NCCc2cccnc2)c(=O)n1CC(=O)NCc1ccc(C(=N)N)cc1 [1471-64]

Ans:
1: 11; 2: 2

Provide IC50 or % Inhibition Factor Xa (30 µM) values for the following items, in order.
1. N=C(N)c1ccc(CNC(=O)Cn2c(-c3ccccc3)c(Cl)nc(NCc3cc(F)ccc3F)c2=O)cc1 [1512-36]
2. N=C(N)c1ccc(CNC(=O)Cn2c(-c3cccc(Cl)c3)c(Cl)nc(NCc3ccncc3)c2=O)cc1 [1471-27]

Ans:
1. 9
2. 16
